Source of measurements: ChEMBL document CHEMBL5291721

- TARGET SYSTEM: Thromboxane A2 receptor (Homo sapiens); also: assay procedure not described here
- Sequence (P21731 whole entry): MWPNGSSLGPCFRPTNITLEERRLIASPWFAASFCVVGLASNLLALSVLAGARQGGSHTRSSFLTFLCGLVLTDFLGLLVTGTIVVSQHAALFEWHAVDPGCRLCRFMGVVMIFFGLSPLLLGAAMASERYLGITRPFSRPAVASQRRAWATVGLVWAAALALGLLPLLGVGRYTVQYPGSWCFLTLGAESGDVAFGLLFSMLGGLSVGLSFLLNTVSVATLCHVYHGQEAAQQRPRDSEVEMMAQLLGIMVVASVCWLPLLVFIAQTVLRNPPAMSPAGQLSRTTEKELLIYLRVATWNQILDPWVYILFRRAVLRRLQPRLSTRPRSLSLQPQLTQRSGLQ
- Assay type: functional, cell-based
OBSERVATION TYPE: AC50

Consider the reported AC50 for these compounds:
Cc1onc(-c2c(F)cccc2Cl)c1C(=O)N[C@@H]1C(=O)N2[C@@H]1SC(C)(C)[C@@H]2C(=O)O = > 30 µM
CCOc1cc([C@@H](CS(C)(=O)=O)N2C(=O)c3cccc(NC(C)=O)c3C2=O)ccc1OC = > 30 µM
CC(C)(O/N=C(\C(=O)N[C@@H]1C(=O)N2C(C(=O)[O-])=C(C[n+]3ccccc3)CS[C@H]12)c1csc(N)n1)C(=O)O = > 300 µM

Problem: So what's the measured AC50 for this one? Clc1ccc(Cn2c(CN3CCCC3)nc3ccccc32)cc1
Result: > 10 µM

====

The following are reported AC50 results, target or system Sodium-dependent noradrenaline transporter (Homo sapiens). Also: assay procedure not described here.

Sample answers from the record:
C[N+]1(C)CCCC(OC(=O)C(O)(c2ccccc2)c2ccccc2)C1 (stereo unspecified) [MEPENZOLATE] = > 30 µM
O=C(O)Cc1ccccc1Oc1ccc(Cl)cc1Cl = > 30 µM
CC(C)C[C@H](NC(=O)[C@@H](O)[C@H](N)Cc1ccccc1)C(=O)O = > 30 µM
CC(=O)OC[C@H]1O[C@@H](n2ncc(=O)[nH]c2=O)[C@H](OC(C)=O)[C@@H]1OC(C)=O = > 30 µM
COC(=O)[C@@H](N)Cc1ccc(O)c(O)c1 = > 30 µM

Problem: I am curious: what AC50 value has been reported for COC(=O)[C@H]1[C@H]2C[C@@H]3c4[nH]c5cc(OC)ccc5c4CCN3C[C@H]2C[C@@H](OC(=O)c2cc(OC)c(OC)c(OC)c2)[C@@H]1OC ?
Result: 13.6 µM

Problem: Moving on to the next compound: CN[C@@H]1[C@H](O[C@H]2[C@H](O[C@H]3[C@H](O)[C@@H](O)[C@H](NC(=N)N)[C@@H](O)[C@@H]3NC(=N)N)O[C@@H](C)[C@]2(O)CO)O[C@@H](CO)[C@H](O)[C@H]1O [DIHYDROSTREPTOMYCIN]
Result: > 30 µM

Problem: Same for CC(=O)NCCCCCC(=O)O
Result: > 30 µM

Problem: Record: Cc1ccc(C)c(OCCCC(C)(C)C(=O)O)c1
Result: > 30 µM

Problem: Try this compound too: Clc1ccc(C(Cn2ccnc2)OCc2csc3c(Cl)cccc23)c(Cl)c1 (stereo unspecified)
Result: 3.3 µM

Problem: Check COc1ccc2[nH]c([S+]([O-])Cc3ncc(C)c(OC)c3C)nc2c1 (stereo unspecified) too.
Result: > 30 µM

Problem: Then this compound: O=C1Cc2cc(CCN3CCN(c4nsc5ccccc45)CC3)c(Cl)cc2N1
Result: 0.507 µM

Problem: Let us now turn to O=C(CCC/C=C\C[C@@H]1[C@@H](CC[C@@H](O)CCc2ccccc2)[C@H](O)C[C@@H]1O)OCCCCO[N+](=O)[O-]
Result: > 30 µM

Problem: Quick one: CCCc1nc2c(C)cc(-c3nc4ccccc4n3C)cc2n1Cc1ccc(-c2ccccc2C(=O)O)cc1
Result: > 30 µM

Problem: Try this compound too: CC(C)NC(=N)NC(=N)Nc1ccc(Cl)c(Cl)c1
Result: 2.89 µM

Problem: Next entry: COC(=O)C[C@](O)(CCCC(C)(C)O)C(=O)O[C@@H]1C(OC)=C[C@]23CCCN2CCc2cc4c(cc2[C@H]13)OCO4 [OMACETAXINE MEPESUCCINATE]
Result: > 30 µM

====

Reported values: AC50 for Histamine H3 receptor (Homo sapiens), one per item.

The cases that follow already have their AC50 on record.
C[C@]12C/C(=C/O)C(=O)C[C@@H]1CC[C@@H]1[C@@H]2CC[C@@]2(C)[C@H]1CC[C@]2(C)O = > 30 µM
O=C1Cc2cc(CCN3CCN(c4nsc5ccccc45)CC3)c(Cl)cc2N1 = > 30 µM
Cc1ccccc1-n1c(CF)nc2ccc(N)cc2c1=O = > 30 µM
CCOc1nc2cccc(C(=O)O)c2n1Cc1ccc(-c2ccccc2-c2nnn[nH]2)cc1 = > 30 µM
COc1ccccc1OC1(C)OC(=O)c2ccccc2O1 (stereo not given) = > 30 µM

Problem: For the compound CCC(NC(C)C)C(O)c1ccc(O)c2[nH]c(=O)ccc12 (stereo not given) , what AC50 is on record?
Result: > 30 µM

Problem: Another compound to check: C[C@]12CCC(=O)C[C@@H]1CC[C@@H]1[C@@H]2CC[C@]2(C)[C@@H](O)CC[C@@H]12
Result: > 30 µM

Problem: Then what about the compound COc1ccc(CN2CCN(C(c3ccc(F)cc3)c3ccc(F)cc3)CC2)c(OC)c1OC ?
Result: > 30 µM

Problem: Quick one: CCCc1cc(=O)[nH]c(=S)[nH]1
Result: > 10 µM

Problem: Query Cc1ccnc2c1NC(=O)c1cccnc1N2C1CC1 next
Result: > 10 µM

Problem: What would you report for OC[C@H]1O[C@@H](Oc2cc(O)cc(/C=C/c3ccc(O)cc3)c2)[C@H](O)[C@@H](O)[C@@H]1O ?
Result: > 30 µM

Problem: And the next one, Oc1ccc(CCNCCCCCCNCCc2ccccc2)cc1O ?
Result: 11 µM

Problem: How about this compound: COc1cc(C(=O)NC2CCCNC2)cc(OC)c1OC (stereo not given) [TROXIPIDE]
Result: > 30 µM

====

- TARGET SYSTEM: 5-hydroxytryptamine receptor 2B (Homo sapiens, UniProt P41595); also: assay procedure not described here
- Sequence (P41595 whole entry): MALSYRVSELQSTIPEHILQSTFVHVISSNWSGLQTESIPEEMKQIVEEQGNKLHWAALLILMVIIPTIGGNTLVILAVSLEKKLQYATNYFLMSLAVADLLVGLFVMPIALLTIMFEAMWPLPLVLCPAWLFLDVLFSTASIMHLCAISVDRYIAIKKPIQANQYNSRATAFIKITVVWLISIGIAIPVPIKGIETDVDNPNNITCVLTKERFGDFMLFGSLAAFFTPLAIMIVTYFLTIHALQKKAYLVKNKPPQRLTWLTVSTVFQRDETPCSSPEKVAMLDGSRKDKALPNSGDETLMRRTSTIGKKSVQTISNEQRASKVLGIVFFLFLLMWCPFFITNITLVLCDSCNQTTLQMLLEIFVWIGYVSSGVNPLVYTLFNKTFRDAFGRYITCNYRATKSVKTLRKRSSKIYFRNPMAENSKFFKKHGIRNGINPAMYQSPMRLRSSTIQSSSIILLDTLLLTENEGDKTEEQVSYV
- Format: functional, cell-based
Recorded AC50 for the following compounds

Use these answered entries as a reference point.
Cc1cccc(C)c1NC(=O)CC12CCCN1CCC2 [PILSICAINIDE] = > 30 µM
NC(=O)NC(=O)Cc1ccccc1 [PHENACEMIDE] = > 10 µM
C[C@]12C/C(=C/O)C(=O)C[C@@H]1CC[C@@H]1[C@@H]2CC[C@@]2(C)[C@H]1CC[C@]2(C)O = > 30 µM
O=C1Cc2cc(CCN3CCN(c4nsc5ccccc45)CC3)c(Cl)cc2N1 = 0.229 µM
CC1=C(C(=O)OC(C)C)C(c2cccc([N+](=O)[O-])c2)C(C(=O)OC2CN(C(c3ccccc3)c3ccccc3)C2)=C(N)N1 (centres undefined) = > 30 µM

Problem: Query: AC50; subject: CC(C)(C)NCC(O)c1ccccc1Cl (centres undefined)
Result: > 30 µM

Problem: Query Cc1nnc(SCC2=C(C(=O)O)N3C(=O)[C@@H](NC(=O)Cn4cnnn4)[C@H]3SC2)s1 next
Result: > 300 µM

====

Overview of recorded AC50 for various compounds
- TARGET SYSTEM: D(1A) dopamine receptor (Homo sapiens, UniProt P21728); also: assay procedure not described here
- Sequence (P21728 whole entry): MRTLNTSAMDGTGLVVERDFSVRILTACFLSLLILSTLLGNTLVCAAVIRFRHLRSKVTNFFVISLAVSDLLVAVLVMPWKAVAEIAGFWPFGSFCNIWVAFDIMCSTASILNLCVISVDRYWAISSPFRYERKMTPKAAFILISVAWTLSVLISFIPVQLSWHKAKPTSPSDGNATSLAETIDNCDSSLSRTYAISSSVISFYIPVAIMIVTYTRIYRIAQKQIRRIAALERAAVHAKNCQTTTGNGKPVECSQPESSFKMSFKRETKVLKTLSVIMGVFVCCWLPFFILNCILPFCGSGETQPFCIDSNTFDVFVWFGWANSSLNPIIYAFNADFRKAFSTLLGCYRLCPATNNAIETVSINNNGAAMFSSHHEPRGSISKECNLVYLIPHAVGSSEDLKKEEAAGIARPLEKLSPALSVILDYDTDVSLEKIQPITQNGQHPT
- Format: functional, cell-based

Below, 5 compounds whose answers are already recorded.
CCOC(=O)c1c(CSc2ccccc2)n(C)c2cc(Br)c(O)c(CN(C)C)c12 [UMIFENOVIR] = > 30 µM
CCOC(=O)c1ccc(N)cc1 [BENZOCAINE] = > 10 µM
CCCCOc1ccc(C(=O)CCN2CCCCC2)cc1 [DYCLONINE] = > 10 µM
C[C@@H]1C[C@H]2[C@@H]3CCC4=CC(=O)C=C[C@]4(C)[C@@]3(F)[C@@H](O)C[C@]2(C)[C@@]1(O)C(=O)CO [DEXAMETHASONE] = > 30 µM
CCc1cc2c(s1)-n1c(C)nnc1CN=C2c1ccccc1Cl [ETIZOLAM] = > 30 µM

Problem: # input compound: CCCN1CC(NS(=O)(=O)N(CC)CC)CC2Cc3c(O)cccc3CC21 (configuration not stated) [QUINAGOLIDE] ; wanted: its AC50
Result: 0.15 µM

Problem: Please answer likewise for CC(O)(CS(=O)(=O)c1ccc(F)cc1)C(=O)Nc1ccc(C#N)c(C(F)(F)F)c1 (configuration not stated) [BICALUTAMIDE]
Result: > 10 µM

====

Measured AC50 by item
- TARGET SYSTEM: Gamma-aminobutyric acid receptor subunit alpha-1 (Rattus norvegicus); also: assay procedure not described here
- Sequence (P62813 whole entry): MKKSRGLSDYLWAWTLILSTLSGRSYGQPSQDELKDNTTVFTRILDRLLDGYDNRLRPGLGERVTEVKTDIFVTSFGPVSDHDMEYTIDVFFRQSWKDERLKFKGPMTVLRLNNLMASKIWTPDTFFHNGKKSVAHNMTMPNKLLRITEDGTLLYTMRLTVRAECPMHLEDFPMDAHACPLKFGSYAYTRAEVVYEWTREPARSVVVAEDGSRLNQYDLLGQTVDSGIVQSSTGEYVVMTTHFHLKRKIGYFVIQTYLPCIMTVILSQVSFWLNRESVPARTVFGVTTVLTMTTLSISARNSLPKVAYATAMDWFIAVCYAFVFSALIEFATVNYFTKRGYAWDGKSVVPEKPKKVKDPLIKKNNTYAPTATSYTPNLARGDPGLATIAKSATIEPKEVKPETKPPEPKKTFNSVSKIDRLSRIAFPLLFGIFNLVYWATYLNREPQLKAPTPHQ
- Type: functional

Sample records with AC50:
C=C1c2cccc(O)c2C(=O)C2=C(O)[C@]3(O)C(=O)C(C(N)=O)=C(O)[C@@H](N(C)C)[C@@H]3[C@@H](O)[C@H]12 = > 10 µM
CCCCCCCN(CC)CCCC(O)c1ccc(NS(C)(=O)=O)cc1 (configuration not stated) [IBUTILIDE] = > 30 µM
CCC(=O)O[C@](Cc1ccccc1)(c1ccccc1)[C@H](C)CN(C)C = > 10 µM
COc1ccc(CN2CCN(C(c3ccc(F)cc3)c3ccc(F)cc3)CC2)c(OC)c1OC = > 30 µM
C/C=C(/C(=C/C)c1ccc(O)cc1)c1ccc(O)cc1 = > 10 µM

Problem: Which AC50 is reported for this molecule? CC(=O)O[C@]1(C(C)=O)CC[C@H]2[C@@H]3C=C(Cl)C4=CC(=O)[C@@H]5C[C@@H]5[C@]4(C)[C@H]3CC[C@@]21C [CYPROTERONE ACETATE]
Result: > 10 µM

Problem: Do the same for CO/N=C(\C(=O)N[C@@H]1C(=O)N2C(C(=O)O)=C(CSc3nc(=O)c(=O)[nH]n3C)CS[C@H]12)c1csc(N)n1 please
Result: > 30 µM

Problem: Also CCOC(=O)c1ccc(C#Cc2ccc3c(c2)C(C)(C)CCS3)nc1 ?
Result: > 10 µM

Problem: Do the same for O=C(O)c1ccc(NC(=O)[C@H](Cc2ccc(O)cc2)NC(=O)c2ccccc2)cc1 [BENTIROMIDE] please
Result: > 10 µM

Problem: What about this molecule? CN[C@@H](C)[C@@H](O)c1ccccc1
Result: > 10 µM

Problem: // same read-out, input: O=C1Cc2cc(CCN3CCN(c4nsc5ccccc45)CC3)c(Cl)cc2N1
Result: > 10 µM

Problem: For COc1cc(C(=O)OCc2cccc(COC(=O)c3cc(OC)c(OC)c(OC)c3)n2)cc(OC)c1OC then?
Result: > 30 µM

Problem: Let us now turn to Cc1ccccc1-n1c(CF)nc2ccc(N)cc2c1=O
Result: > 10 µM

Problem: How about CNC[C@H](O)c1ccc(O)c(O)c1 [EPINEPHRINE] ?
Result: > 30 µM

Problem: Thanks! And O=C(NCCO[N+](=O)[O-])c1cccnc1 ?
Result: > 30 µM

Problem: What do you get for CCC(=O)O[C@]1(C(=O)CCl)[C@@H](C)C[C@H]2[C@@H]3CCC4=CC(=O)C=C[C@]4(C)[C@@]3(F)[C@@H](O)C[C@@]21C [CLOBETASOL PROPIONATE] ?
Result: > 30 µM

Problem: What do we get for CN1Cc2c(N)cccc2C(c2ccccc2)C1 (configuration not stated) ?
Result: > 30 µM
